subject-of-test: Progesterone receptor (Homo sapiens)
method: qHTS assay to identify small molecule antagonists of the progesterone receptor (PR) signaling pathway (AID 1346795); further: on the % scale 0 is the no-effect control and ±100 the full control effect
particulars: PR-UAS-bla HEK293T, beta-lactamase FRET ratio, 16 h; series mostly up to 42.5 µM
Records with an inconclusive call do not appear. Calls of active or inactive are those of the source. The call rests on the fitted dose curve; in most records, active means well fitted inhibition curve with a large enough effect in the signal ratio in the repeat runs (not every such curve was filed as active); inconclusive means weak or mixed curves; inactive means flat fitted curve, though single readings scatter; the % refers to the signal ratio.
measured-parameter: activity change, negative = inhibition

# count of solved cases: 8
1) CN(C)CCCNCCCN(C)C: inactive
2) CCCCCCCCCCCCCC=O: 6.1% [at 8.39 µM] (inactive)
3) CN1CC(=O)NC1=N: inactive
4) C=C[Si](OC(=C)C)(OC(=C)C)OC(=C)C: inactive
5) Cc1cccn2c(=O)c(-c3nnn[nH]3)cnc12: inactive
6) c1cnc(N2CCN(Cc3ccc4c(c3)OCO4)CC2)nc1: inactive
7) CCOC(=O)Nc1ccc(NCc2ccc(F)cc2)nc1N: inactive
8) C[N+](C)(C)CC(O)CC(=O)[O-] (centres undefined): inactive

Data request, read-out activity change, negative = inhibition, for `O=Cc1cccc([N+](=O)[O-])c1`
inactive

Data request, read-out activity change, negative = inhibition, for CC(C(=O)O)c1ccc(CC2CCCC2=O)cc1 (centres undefined)
inactive

Data request, read-out activity change, negative = inhibition, for CN1C(=O)N(C)C(O)C1O (centres undefined)
inactive

Data request, read-out activity change, negative = inhibition, for `Brc1c(NC2=NCCN2)ccc2nccnc12`
inactive

Data request, read-out activity change, negative = inhibition, for `Cc1c(O)cccc1O`
inactive

Data request, read-out activity change, negative = inhibition, for `O=C(CCCN1CCN(c2ccccn2)CC1)c1ccc(F)cc1`
inactive

Data request, read-out activity change, negative = inhibition, for `COc1ccc2c(c1)CCCC2=O`
inactive

Data request, read-out activity change, negative = inhibition, for `O=C1CCCN1C1CCCCC1`
inactive

Data request, read-out activity change, negative = inhibition, for `C[C@@H]1CCN(C(=O)[C@H](CCCN=C(N)N)NS(=O)(=O)c2cccc3c2NC[C@H](C)C3)[C@@H](C(=O)O)C1`
inactive

---

subject-of-test: Voltage-gated inwardly rectifying potassium channel KCNH2 (Homo sapiens)
method: Human Ether-a-go-go-Related Gene (hERG) channel small molecule antagonists: fluorescence cell-based qHTS assay (AID 1671200);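 further: hERG-expressing U2OS cells given a thallium stimulus after FluxOR II dye loading; on the % scale 0 is the no-effect control and ±100 the full control effect; nearly all actives have a fitted effect of over 50% in size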
particulars: hERG-U2OS cells, FluxOR thallium flux fluorescence; series mostly up to 76.8 µM
Records with an inconclusive call do not appear. Calls of active or inactive are those of the source. Calls come from the whole dose curve; as a rule, active = well fitted inhibition curve with a large enough effect in the repeat runs; inconclusive = weak or mixed curves; inactive = flat fitted curve, though single readings scatter.
measured-parameter: activity change, negative = inhibition

1. COc1ccc2c(c1)c(CC(=O)OCC(=O)O)c(C)n2C(=O)c1ccc(Cl)cc1: inactive
2. CCCCCCCCCCCCCC=O: -8.57% [at 6.97 µM] (inactive)
3. CC(C)CNCC(C)C: inactive
4. C[C@H]1C[C@@H](O)CC(C)(C)C1: inactive
5. O=C(O)CCCc1ccccc1: inactive

Please look at the following compound next.
Data request, read-out activity change, negative = inhibition, for `O=C[C@H](O)[C@@H](O)[C@H](O)[C@H](O)CO`
inactive

---

method: qHTS assay to identify small molecule agonists of the constitutive androstane receptor (CAR) signaling pathway - cell viability counter screen (AID 1224836); further: on the % scale 0 is the no-effect control and ±100 the full control effect; nearly all actives have a fitted effect of over 45% in size
particulars: HepG2-CYP2B6-hCAR viability, CellTiter-Fluor, 23 h, PK11195 added to every well; series mostly up to 92.4 µM
Inconclusive results are not listed. Active and inactive are the calls of the source. Calls come from the whole dose curve; as a rule, active = well fitted cell-killing curve with a large enough effect in the repeat runs; inconclusive = weak or mixed curves, or effect the other way; inactive = flat fitted curve, though single readings scatter.
measured-parameter: viability change, negative = cytotoxic

1) CC(C)NCC(O)c1ccc(NS(C)(=O)=O)cc1 (centres undefined): inactive
2) CC/C=C\CC/C=C/C(OCC)OCC: inactive
3) C=C1CC[C@H]2C[C@@H]1C2(C)C: inactive
4) O=C1CCCC(=O)C1: inactive
5) CC(=O)Nc1c(I)cc(I)c(C(=O)O)c1I: inactive
6) O=C1CCCCCCCCCCCN1: inactive
7) CC(C)(O)C(=O)c1ccccc1: inactive
8) Cc1sccc1Br: inactive

Please look at the following compound next.
Data request, read-out viability change, negative = cytotoxic, for `CC[N+](C)(C)c1cccc(O)c1`
inactive

---

method: qHTS assay to test for compound auto fluorescence at 590 nm (red) in HepG2 cells (AID 720674); further: on the % scale 0 is the no-effect control and ±100 the full control effect
particulars: HepG2 autofluorescence, red 540/590 nm, 1 h; series mostly up to 46 µM
Calls of active or inactive are those of the source. Calls come from the whole dose curve; as a rule, active = well fitted curve in the direction sought with a large enough effect in the repeat runs; inconclusive = weak or mixed curves; inactive = flat fitted curve, though single readings scatter.
measured-parameter: fluorescence, relative to Rose Bengal

# count of solved cases: 6
1. CCCc1cc(C(N)=S)ccn1: inactive
2. CN(C)CCCNCCCN(C)C: inactive
3. N=C(N)c1ccccc1: inactive
4. Nc1c[n+](N2CCOCC2)no1: inactive
5. CC(C)(O)C#CC(C)(C)O: inactive
6. CC(C)(C)c1nnc(NS(=O)(=O)c2ccccc2)s1: inactive

Data request, read-out fluorescence, relative to Rose Bengal, for `CN1CCN(c2cc3c(cc2F)c(=O)c(C(=O)O)cn3-c2ccc(F)cc2)CC1`
inactive

Data request, read-out fluorescence, relative to Rose Bengal, for `CCOC(C)(C)C`
inactive

---

subject-of-test: Cytochrome P450 2D6 (Homo sapiens)
method: Cytochrome P450 Family 2 Subfamily D Member 6 (CYP2D6) small molecule antagonists: luciferase reporter qHTS assay (AID 1671196); further: on the % scale 0 is the no-effect control and ±100 the full control effect; nearly all actives have a fitted effect of over 50% in size
particulars: P450-Glo CYP2D6 enzyme assay, luciferin luminescence, 1 h; series mostly up to 115 µM
Inconclusive results are not listed. Activity calls are given as the source filed them. Calls follow the shape of the dose curve; as a rule, active = well fitted inhibition curve with a large enough effect in the repeat runs; inconclusive = weak or mixed curves; inactive = no such curve, though single readings can be large or run the other way.
Hi! Could you answer with just one of these? class 1 = active, class 0 = inactive

Known results for compounds:
1) O=C(O)Cc1ccc(CCNS(=O)(=O)c2ccc(Cl)cc2)cc1: class 0
2) CC(C)OC(=O)c1ccccc1: class 0
3) NS(=O)(=O)c1cc(C(=O)NN2C[C@H]3[C@H]4CCC(C4)[C@H]3C2)ccc1Cl: class 0
4) Cc1sccc1Br: class 0
5) O=S(O)CO: class 0
6) O=C(O)CNC(=O)c1ccc([N+](=O)[O-])cc1: class 0

# fetch the recorded call for FC1(F)C(F)(F)C(F)(F)C2(F)C(F)(F)C(F)(F)C(F)(F)C(F)(F)C2(F)C1(F)F (stereo not drawn) here
class 0

# fetch the recorded call for `CCCCNC(=O)NCCCC` here
class 0

# fetch the recorded call for `CCOC(=O)CCC(C)=O` here
class 0

---

method: qHTS assay to test for compound auto fluorescence at 590 nm (red) in HepG2 cell free culture (AID 720684); further: on the % scale 0 is the no-effect control and ±100 the full control effect
particulars: cell-free medium autofluorescence, red 540/590 nm; series mostly up to 46 µM
The source made the active and inactive calls. Calls follow the shape of the dose curve; as a rule, active = well fitted curve in the direction sought with a large enough effect in the repeat runs; inconclusive = weak or mixed curves; inactive = flat fitted curve, though single readings scatter.
measured-parameter: fluorescence, % of Rose Bengal

1) CCCCCCCCCCCCCCCCC: inactive
2) CCSC(=O)N(CC(C)C)CC(C)C: inactive
3) CCN(CC)CCOCCOC(=O)C1(c2ccccc2)CCCC1: inactive
4) CN(C(=O)c1c(O)c2ccccc2n(C)c1=O)c1ccccc1: inactive
5) CC(C)NC(=O)NC(C)C: inactive
6) CC/C=C\CC/C=C/CO: inactive
7) CCCCCSCCCCC: inactive
8) Cc1ccc(C#N)cc1: inactive

Please look at the following compound next.
Data request, read-out fluorescence, % of Rose Bengal, for `CC(C)CNCC(C)C`
inactive

---

method: qHTS assay to identify small molecule agonists of the endoplasmic reticulum stress response signaling pathway (AID 1159516); further: on the % scale 0 is the no-effect control and ±100 the full control effect
particulars: ESRE-bla HeLa, ER stress beta-lactamase reporter, 5 h; series mostly up to 61 µM
Inconclusive results are not listed. Calls of active or inactive are those of the source. Calls follow the shape of the dose curve; as a rule, active = well fitted activation curve with a large enough effect in the signal ratio in the repeat runs (not every such curve was filed as active); inconclusive = weak or mixed curves, or effect the other way; inactive = flat fitted curve, though single readings scatter; the % refers to the signal ratio.
measured-parameter: activation

1. Oc1ccc(C2CNCCc3c2cc(O)c(O)c3Cl)cc1 (stereo not given): inactive
2. NCCc1cnc[nH]1: inactive
3. CC(C)(c1ccc(O)cc1)c1ccc(O)cc1: inactive
4. CC(C)(C)c1ccc(O)c(O)c1: inactive
5. O=C(O)c1ccccc1OP(=O)(O)O: inactive

Data request, read-out activation, for `CCN1CCC[C@H]1CNC(=O)c1c(O)c(Cl)cc(Cl)c1OC`
inactive

Data request, read-out activation, for `CCCCCCOC(=O)CCCCC(=O)OCCCCCC`
inactive

Data request, read-out activation, for O=C1CC2CC1C1CCCC21 (stereo not given)
inactive

Data request, read-out activation, for CCO[Si](CCC1CCC2OC2C1)(OCC)OCC (stereo not given)
inactive

Data request, read-out activation, for COC(C)(C)CCCC(C)CC=O (stereo not given)
inactive

Data request, read-out activation, for `NC(=O)Nc1ccccc1`
inactive

Data request, read-out activation, for `COC(=O)NN`
inactive

Data request, read-out activation, for `CC/C=C\CCOC(C)=O`
inactive

Data request, read-out activation, for `CCCCCCCCCCCCCCCCC`
inactive

Data request, read-out activation, for `C=CCS(=O)(=O)O`
inactive

---

method: qHTS assay to identify small molecule antagonists of the thyroid receptor (TR) signaling pathway (AID 743065); further: on the % scale 0 is the no-effect control and ±100 the full control effect; nearly all actives have a fitted effect of over 55% in size
particulars: GH3.TRE-Luc, T3-stimulated luciferase inhibition, 23.5 h; series mostly up to 70.3 µM
Inconclusive results are not listed. Calls of active or inactive are those of the source. Calls follow the shape of the dose curve; as a rule, active = well fitted inhibition curve with a large enough effect in the repeat runs; inconclusive = weak or mixed curves; inactive = no such curve, though single readings can be large or run the other way.
Hi! Could you answer with just one of these? active, inactive

1) CCOC(=O)[C@H](CCc1ccccc1)N[C@@H](C)C(=O)N1[C@H](C(=O)O)C[C@@H]2CCC[C@@H]21: inactive
2) NC(=O)c1ccc([N+](=O)[O-])cc1: inactive

# fetch the recorded call for `O=C(O)Cc1ccc(CCNS(=O)(=O)c2ccc(Cl)cc2)cc1` here
inactive

# fetch the recorded call for `CCOC(=O)c1cccc(N)c1` here
inactive
